Values compiled from ChEMBL document CHEMBL1150241.

Test system: NCI-H460
Assay: Cytotoxic activity against human NCI-H460 cells after 72 hrs by sulforhodamine B test
Format: functional, cell-based
Conditions: NCI-H460, 72 h
pIC50: −log10 of the molar value.
# binarize pIC50: threshold 8 inclusive, high side satisfied, low side not satisfied

[ask] # check: pIC50 of `COc1ccc(/C=C(/F)c2cc(OC)c(OC)c(OC)c2)cc1N` is greater than or equal to 8
[reply] satisfied

[ask] State whether the measured pIC50 reaches 8, counting equality as reaching it, for `COc1ccc(/C=C(/F)c2cc(OC)c(OC)c(OC)c2)cc1O`
[reply] satisfied

[ask] Decide: is the reported value of pIC50 for `COc1ccc(/C(F)=C\c2cc(OC)c(OC)c(OC)c2)cc1O` equal to or greater than 8?
[reply] satisfied

[ask] Item `COc1ccc(/C(F)=C\c2cc(OC)c(OC)c(OC)c2)cc1[N+](=O)[O-]` with pIC50 of 8 or above?
[reply] not satisfied
